# credit: patent US20230056252A1

Each entry below lists one item and its recorded koff value.
molecular target: T1, biotinylated CD3 epsilon:delta heterodimer protein (Amsbio AMS.CDD-H52WO) (Homo sapiens (Human), UniProt P07766 23-126; P04234 22-105); assay: BLI (Octet), CD3 on SA sensor, Fab analyte;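 also: fabs dipped at several concentrations (0–300 nM) onto CD3-loaded streptavidin biosensors, 100 s association then 300 s dissociation in buffer, pH 7.4, sensors blocked with biocytin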
T1 construct: also called CD3 heterodimer
I only need the number, in s⁻¹, no unit after it.

Look over these answered cases.
binder	unit_descriptor	recorded_measurement
huSP34.3.7 Fab-HF (Fab, V domains shown, also called HC3+LC7) VH: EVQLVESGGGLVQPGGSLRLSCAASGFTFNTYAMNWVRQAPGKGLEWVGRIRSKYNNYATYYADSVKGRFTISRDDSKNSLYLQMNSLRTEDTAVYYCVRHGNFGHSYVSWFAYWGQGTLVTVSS VL: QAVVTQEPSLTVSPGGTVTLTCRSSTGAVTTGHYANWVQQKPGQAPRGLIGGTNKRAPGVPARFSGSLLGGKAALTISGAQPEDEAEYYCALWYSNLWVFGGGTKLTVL	s⁻¹	0.00168
huSP34.12.9 Fab-HF (Fab, V domains shown, also called HC12+LC9) VH: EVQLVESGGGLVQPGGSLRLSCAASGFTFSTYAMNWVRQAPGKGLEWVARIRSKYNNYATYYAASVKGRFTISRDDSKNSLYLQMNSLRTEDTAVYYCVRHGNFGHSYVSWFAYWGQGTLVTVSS VL: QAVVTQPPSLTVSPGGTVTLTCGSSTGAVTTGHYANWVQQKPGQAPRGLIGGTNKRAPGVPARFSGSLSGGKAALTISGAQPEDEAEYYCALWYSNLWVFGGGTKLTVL	s⁻¹	0.00335

Consider the record given below.
// koff value for huSP34.12.8 Fab-HF (Fab, V domains shown, also called HC12+LC8) VH: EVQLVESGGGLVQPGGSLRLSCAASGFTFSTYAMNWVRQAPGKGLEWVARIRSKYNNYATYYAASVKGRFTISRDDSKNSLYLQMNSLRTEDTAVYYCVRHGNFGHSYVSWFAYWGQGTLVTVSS VL: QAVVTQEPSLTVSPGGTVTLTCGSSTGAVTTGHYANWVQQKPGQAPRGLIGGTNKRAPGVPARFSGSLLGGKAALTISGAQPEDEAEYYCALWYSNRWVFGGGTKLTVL : 0.00166
